Test: Plasma and tissue distribution in SD rats
Type: in vivo
Test Context: female SD rat, PO 10 mg/kg, Skin
Endpoint Label: Tmax (h)
Field: numeric (h). Do not append units.

Query string: Record request: Tmax value, item C[C@@H](c1ccc(Nc2cc(Nc3ncccc3S(C)(=O)=O)ncn2)nc1)N1CC2(COC2)C1
Result string: 2

====

Test: Plasma and tissue distribution in SD rats
Format: in vivo
Test Context: male SD rat, PO 10 mg/kg, Bone Marrow
Endpoint Label: half-life (h)
Could you give me the number in h? Just the number is fine.

Query string: Bench note: what half-life did C[C@@H](c1ccc(Nc2cc(Nc3ncccc3S(C)(=O)=O)ncn2)nc1)N1CC2(COC2)C1 [Compound 1] show?
Result string: 3.51

The measurements presented in this section are drawn from patent US20260048051A1.
